- target-of-assay: FIH (Homo sapiens)
- Construct: Full-length recombinant FIH, two- and three-consensus ankyrin repeats (2CA and 3CA) were produced as described; His6 (cleaved yes); made in house; host or cells: Escherichia coli BL21(DE3)
- Sequence (Q9NWT6 whole entry): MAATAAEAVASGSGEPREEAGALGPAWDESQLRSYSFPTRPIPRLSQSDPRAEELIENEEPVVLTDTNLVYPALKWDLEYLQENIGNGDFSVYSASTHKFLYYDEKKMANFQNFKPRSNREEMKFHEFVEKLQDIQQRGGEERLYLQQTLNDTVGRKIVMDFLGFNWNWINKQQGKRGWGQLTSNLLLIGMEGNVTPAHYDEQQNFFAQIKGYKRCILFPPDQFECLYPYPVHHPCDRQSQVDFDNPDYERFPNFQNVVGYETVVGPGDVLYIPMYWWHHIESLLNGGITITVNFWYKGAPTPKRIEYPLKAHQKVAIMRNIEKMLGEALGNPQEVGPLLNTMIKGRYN
- method-description: Stopped-flow UV-visible spectroscopy, FIH·Fe(II)·2OG·substrate + O2
- Format: biochemical
- recorded-conditions: anaerobic 0.5 mM FIH, 1 mM substrate, 5 mM 2OG, 0.4 mM Fe(II), 50 mM HEPES pH 7.5, mixed 1:1 with O2-saturated buffer at 5 °C; double exponential fit
I'd appreciate it if you could supply Stopped-flow, 500 nm (FIH) kfall phase values for the items below.
Write your answer as a measured quantity: the number, then the unit.

Consider the following illustrative entries.
sequence-content | target-of-assay | assay-value
ESYLLPELTRYDCEVNVPVLGSSTLLQGGDLLRAL [HIF-2α CAD35-mer] | FIH (Homo sapiens) | 4.9 ± 0.2 s⁻¹
HLEVVKLLLEAGADVNAQDK [1CA20-mer] | FIH (Homo sapiens) | 17.6 ± 0.1 s⁻¹
AAGYNNLEVAEYLLEHGADVNAQDKGGLIPLHNAA [tnkrs-1_35-mer, 35-mer fragment of tankyrase-1, ARD substrate of FIH] | FIH (Homo sapiens) | 14.8 ± 0.2 s⁻¹
DESGLPQLTSYDCEVNAPIQGSRNLLQGEELLRAL [HIF-1α CAD35-mer] | FIH (Homo sapiens) | 4.5 ± 0.3 s⁻¹

Provide Stopped-flow, 500 nm (FIH) kfall phase for all items below, preserving their order.
1. NLEVAEYLLEHGADVNAQDK [tnkrs-1_20-mer, 20-mer fragment of tankyrase-1, ARD substrate of FIH]
2. GSHMGSDLGKKLLEAARAGQDDEVRILMANGADVAAKDKNGSTPLHLAARNGHLEVVKLLLEAGADVNAQDKFGKTAFDISIDNGNEDLAEILQ [3CA, recombinant three-consensus ankyrin repeat protein produced in Escherichia coli]

1: 16.7 ± 0.2 s⁻¹; 2: 10.5 ± 0.1 s⁻¹

Tell me the measured Stopped-flow, 500 nm (FIH) kfall phase of SDKNGSTPLHLAARNGHLEVVKLLLEHGADVNAQDKWGKTAFDISIDNGNEDLAEILQ [2CA, recombinant two-consensus ankyrin repeat protein produced in Escherichia coli] , please.
11.9 ± 0.2 s⁻¹
